Experiment: amyloid nucleation score (Sup35N fusion, yeast selection) (log enrichment); library NNK1; higher = more nucleation; inactive = no reads after selection;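 further: zero at mode of non-aggregating sequences after 7 days selection at 30°C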
amyloid nucleation score overview

| substance | amyloid nucleation score |
| --- | --- |
| YWPGFSNRFR | 0.397 |
| FIVKKFIKSNRLVLMRGSPL | 0.669 |
| IINMGTYRSTMLNILLKEKC | 2.88 |
| VITNHDDE | 0.51 |
| YFTLFDSRKTVLRSENNTRW | 0.578 |
| SCARFITTNNQDSRLVASSN | -0.718 |
| HCPCGCYTPFLAKRMSSVLV | 0.362 |
| AALTCLCCWAFFVISKNNYQ | 0.995 |
| LTLMGRSMNKYVAGSTTRAL | -0.371 |
| EYRTSSEQTANTFILKPRWA | 1.72 |
| LDNLWYL | 0.623 |
| SAGGHSLSVTYWSGCSLRTV | 0.272 |
| GGLRWRRCFLP | -1.58 |
| WTSSVFSIAHPVRYVRFYAV | 0.307 |
| SDPYDPRIVVVRIKLLLVME | -0.153 |
| SYLTGAEFFSTVRK | -0.745 |
| YLQVGASADWKLTYSGSGNV | 2.72 |
| DSFMAENMWGLFFDKSESPA | -0.517 |
| FTMLYSVYPSGRPGSQSGR | 1.92 |
| YHDVRLMVRVHVFWLF | 1.03 |
| LIKYFNINYNGCSAVPWGSP | 5.98 |
| RLLFLMSWSSVVWINCRVWS | 0.657 |

---

Test: amyloid nucleation score (Sup35N fusion, yeast selection) (log enrichment); library NNK1; higher = more nucleation; inactive = no reads after selection

| seq.text | amyloid nucleation score |
| --- | --- |
| YLLCMGMVFSIGKFSSIPCP | inactive |
| WSTFYLFLSLDWKNYT | inactive |
| LGSNNWVFGYGR | inactive |

---

Test: amyloid nucleation score (Sup35N fusion, yeast selection) (log enrichment); library NNK3; higher = more nucleation; inactive = no reads after selection

| seq.text | amyloid nucleation score |
| --- | --- |
| VNDSAGVKLAVDCERTRKGG | -0.5 |
| AWYKFVGRVMRDPYMEARLA | inactive |
| TAFTGIRTWHCHCKRSYSLG | inactive |
| LHLNGAYMAFLIVMSCMHFS | inactive |
| EWFEKIFIRLTGHRTKFYNS | inactive |
| RRKHHVISQVPERPLSWLAT | inactive |
| CSATRYFCRNLRRVCVNEYG | inactive |
| KWLMNSNFAWLI | inactive |
| AIEQSLDWF | inactive |
| SVLHMWNLRVVLHECYVYHI | inactive |
| RRRGNKAFHPLQ | inactive |
| HNLNLDGLMSKSSFTPMVLL | inactive |
| VAAMYGILMMLMELVWSDAR | inactive |
| VTSPFTPSI | -0.336 |
| TPCNRREISWFVFSLPA | inactive |
| HDNRDDRIVFFARLDHSRRS | 0.626 |
| VMVRTNMCR | inactive |
| SMSIYPVCLTF | inactive |
| GIGRDCNVSGALCQRAVANV | inactive |
| GWHYMYSGYANYIGFSLPLY | inactive |
| NVSQFISIGVVITFKMLLVW | -0.478 |
| FIYSFLSYHIWTFKPPVVVG | inactive |
| FWSSFAMRAYSVIWYTLSTC | inactive |
| TWATVTMVWCLNVNSVDTGL | 2.26 |
| LHVFSECRFIRSLLGPNGIF | inactive |
| TCRHPIPASLARSAAAVLVW | inactive |

Hey, just so you know, these numbers are from the supplement of paper PMC12042874.
